- Procedure Details: activity coefficient (dimensionless); of the first substance listed, at infinite dilution; xn = mol fraction of the nth substance listed
- Measurement Conditions: 323 K; 101 kPa; Liquid; Chromatography; x1 = 0
Exam item: assign 1 to entries whose activity coefficient is below 3 and -1 to entries at or above 3. Note that a value of exactly 3 receives -1.

CCCCCCC [heptane] + CCCCCCCC[N+]1(C)CCCC1.O=S(=O)([N-]S(=O)(=O)C(F)(F)F)C(F)(F)F
-1
CC(C)O [propan-2-ol] + CCCCCCCC[N+]1(C)CCCC1.O=S(=O)([N-]S(=O)(=O)C(F)(F)F)C(F)(F)F
1
CC(C)OC(C)C [diisopropyl ether] + CCCCCCCC[N+]1(C)CCCC1.O=S(=O)([N-]S(=O)(=O)C(F)(F)F)C(F)(F)F
1
CCC[N+](=O)[O-] [1-nitropropane] + CCCCCCCC[N+]1(C)CCCC1.O=S(=O)([N-]S(=O)(=O)C(F)(F)F)C(F)(F)F
1
CCCCCC [hexane] + CCCCCCCC[N+]1(C)CCCC1.O=S(=O)([N-]S(=O)(=O)C(F)(F)F)C(F)(F)F
-1
c1ccncc1 [pyridine] + CCCCCCCC[N+]1(C)CCCC1.O=S(=O)([N-]S(=O)(=O)C(F)(F)F)C(F)(F)F
1
CCCCCCCCCC [decane] + CCCCCCCC[N+]1(C)CCCC1.O=S(=O)([N-]S(=O)(=O)C(F)(F)F)C(F)(F)F
-1
CC(C)CO [2-methyl-1-propanol] + CCCCCCCC[N+]1(C)CCCC1.O=S(=O)([N-]S(=O)(=O)C(F)(F)F)C(F)(F)F
1
c1ccsc1 [thiophene] + CCCCCCCC[N+]1(C)CCCC1.O=S(=O)([N-]S(=O)(=O)C(F)(F)F)C(F)(F)F
1
ClCCl [dichloromethane] + CCCCCCCC[N+]1(C)CCCC1.O=S(=O)([N-]S(=O)(=O)C(F)(F)F)C(F)(F)F
1

Now consider the entry below.
Input: Item C1CCCCCC1 [cycloheptane] + CCCCCCCC[N+]1(C)CCCC1.O=S(=O)([N-]S(=O)(=O)C(F)(F)F)C(F)(F)F : activity coefficient beneath 3, strictly?
Output: -1

----------
- Procedure Details: activity coefficient (dimensionless); of the first substance listed, at infinite dilution; xn = mol fraction of the nth substance listed
- Measurement Conditions: 333 K; 101 kPa; Liquid; Chromatography; x1 = 0
Endpoint Name: activity coefficient
Give bare numbers.

CCOCC [diethyl ether] + CCCCCCCC[N+]1(C)CCCC1.O=S(=O)([N-]S(=O)(=O)C(F)(F)F)C(F)(F)F
1.34
ClC(Cl)(Cl)Cl [tetrachloromethane] + CCCCCCCC[N+]1(C)CCCC1.O=S(=O)([N-]S(=O)(=O)C(F)(F)F)C(F)(F)F
1.3
CC(C)OC(C)C [diisopropyl ether] + CCCCCCCC[N+]1(C)CCCC1.O=S(=O)([N-]S(=O)(=O)C(F)(F)F)C(F)(F)F
2.58

Turning now to a further molecule:
Input: Please look up its activity coefficient: CCCCCCCC [octane] + CCCCCC[N+]1(C)CCCC1.O=S(=O)([N-]S(=O)(=O)C(F)(F)F)C(F)(F)F
Output: 13.4

----------
- Procedure Details: activity coefficient (dimensionless); of the first substance listed, at infinite dilution; xn = mol fraction of the nth substance listed
- Measurement Conditions: 343.1 K; 101 kPa; Liquid; Chromatography; x1 = 0
Endpoint Name: activity coefficient

Below are worked cases with known answers.
CCOCC [diethyl ether] + CCCCCCCC[N+]1(C)CCCC1.O=S(=O)([N-]S(=O)(=O)C(F)(F)F)C(F)(F)F
1.14
CCc1ccccc1 [ethylbenzene] + CCCCCCCC[N+]1(C)CCCC1.O=S(=O)([N-]S(=O)(=O)C(F)(F)F)C(F)(F)F
1.04
C[N+](=O)[O-] [nitromethane] + CCCCCCCC[N+]1(C)CCCC1.O=S(=O)([N-]S(=O)(=O)C(F)(F)F)C(F)(F)F
0.48

Turning now to a further compound:
Input: Please look up its activity coefficient: CCCCCCCCCC [decane] + CCCCCCCC[N+]1(C)CCCC1.O=S(=O)([N-]S(=O)(=O)C(F)(F)F)C(F)(F)F
Output: 11

Data credit: the NIST ThermoML archive (doi:10.1021/je300692s)
